# experimentalDetails: Stability of the analytes in human plasma at QC levels
# Type: in vitro ADME
# measurementConditions: low QC; four cycles, −40 °C; human plasma; n = 5
experimentalEndpoint: Freeze–thaw Dev. (%)

Below: 3 compounds and their reported Freeze–thaw Dev. (%).
compound	reading
C[C@H]1C[C@H]2[C@@H]3CCC4=CC(=O)C=C[C@]4(C)[C@@]3(F)[C@@H](O)C[C@]2(C)[C@@]1(O)C(=O)COP(=O)([O-])[O-].[Na+].[Na+] [BSP, betamethasone sodium phosphate]	−2.84
CCC(=O)OCC(=O)[C@@]1(O)[C@@H](C)C[C@H]2[C@@H]3CCC4=CC(=O)C=C[C@]4(C)[C@@]3(F)[C@@H](O)C[C@@]21C [B21P, betamethasone 21-monopropionate]	2.97
CCC(=O)O[C@]1(C(=O)CO)[C@@H](C)C[C@H]2[C@@H]3CCC4=CC(=O)C=C[C@]4(C)[C@@]3(F)[C@@H](O)C[C@@]21C [B17P, betamethasone 17-monopropionate]	12.5

a. CCC(=O)OCC(=O)[C@@]1(OC(=O)CC)[C@@H](C)C[C@H]2[C@@H]3CCC4=CC(=O)C=C[C@]4(C)[C@@]3(F)[C@@H](O)C[C@@]21C [BDP, betamethasone dipropionate]
b. C[C@H]1C[C@H]2[C@@H]3CCC4=CC(=O)C=C[C@]4(C)[C@@]3(F)[C@@H](O)C[C@]2(C)[C@@]1(O)C(=O)CO
Hi there, can you help? I need to know whether a or b has lower measured Freeze–thaw Dev. (%). Give the chosen item's label as your response.
b

---

# experimentalDetails: Stability of the analytes in human plasma at QC levels
# Type: in vitro ADME
# measurementConditions: high QC; 6 h, r.t.; human plasma; n = 5
Known Short-term MCM ± SD of a selection of molecules

Below: 4 molecules and their reported Short-term MCM ± SD.
molecule	reading
CCC(=O)OCC(=O)[C@@]1(O)[C@@H](C)C[C@H]2[C@@H]3CCC4=CC(=O)C=C[C@]4(C)[C@@]3(F)[C@@H](O)C[C@@]21C [B21P, betamethasone 21-monopropionate]	3.944 ± 0.303 × 10^−9 mol·dm^−3
C[C@H]1C[C@H]2[C@@H]3CCC4=CC(=O)C=C[C@]4(C)[C@@]3(F)[C@@H](O)C[C@]2(C)[C@@]1(O)C(=O)COP(=O)([O-])[O-].[Na+].[Na+] [BSP, betamethasone sodium phosphate]	310.9 ± 14.43 × 10^−9 mol·dm^−3
C[C@H]1C[C@H]2[C@@H]3CCC4=CC(=O)C=C[C@]4(C)[C@@]3(F)[C@@H](O)C[C@]2(C)[C@@]1(O)C(=O)CO	64.74 ± 5.074 × 10^−9 mol·dm^−3
CCC(=O)OCC(=O)[C@@]1(OC(=O)CC)[C@@H](C)C[C@H]2[C@@H]3CCC4=CC(=O)C=C[C@]4(C)[C@@]3(F)[C@@H](O)C[C@@]21C [BDP, betamethasone dipropionate]	44.42 ± 0.893 × 10^−9 mol·dm^−3

In the following, a different molecule is considered.
Given the entry CCC(=O)O[C@]1(C(=O)CO)[C@@H](C)C[C@H]2[C@@H]3CCC4=CC(=O)C=C[C@]4(C)[C@@]3(F)[C@@H](O)C[C@@]21C [B17P, betamethasone 17-monopropionate] , report its measured Short-term MCM ± SD.
3.435 ± 0.353 × 10^−9 mol·dm^−3
